compounds and their reported normalized growth
- assayOverview: chemical genetic growth profiling, strain panel (AID 1159580);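 note: tested at 20 µM; growth read once vehicle control cultures reached saturation at 30 °C; 1 = growth at the plate median or of vehicle wells; lower values mean less growth of the strain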
- testSettings: S. cerevisiae deletion strains, growth OD, locus YNL307C, strain MCK1, hits give low values
Among all 5,500 compounds or so, about 2,000 (36%) were called active. Roughly 18% stayed inconclusive and do not appear here. The list shows a part of the results.
endpointName: normalized growth

> print(dat)
                                   compound  reportedresult
1               CC1=NCCc2c1[nH]c1cc(O)ccc21           0.988
2  CCC(/C=C/[C@@H](C)[C@H]1CCC2C3CC=C4C[C@@H](O)CC[C@]4(C)C3CC[C@@]21C)C(C)C (stereo partly drawn)            1.01
3            CN(C)CCC=C1c2ccccc2CCc2ccccc21           0.999

###

- assayOverview: chemical genetic growth profiling, strain panel (AID 1159580)
- testSettings: S. cerevisiae deletion strains, growth OD, locus YDR195W, strain ref2
The whole screen tested about 5,500 compounds, of which about 2,000 (36%) were called active. About 18% were inconclusive and are not listed. The list shows a part of the results.

compound	normalized growth
COCCOC(=O)C1=C(C)NC(C)=C(C(=O)OC(C)C)C1c1cccc([N+](=O)[O-])c1 (stereo not drawn)	1.01
CC(=O)O[C@H]1C[C@@]2(C)[C@H](c3ccoc3)OC(=O)[C@H]3O[C@]32[C@@]2(C)C1[C@]1(C)C(C[C@H]2OC(C)=O)C(C)(C)[C@H](OC(C)=O)C[C@@H]1OC(C)=O (stereo partly drawn)	0.981
CC(=O)O[C@H]1C[C@@H](O)C(C)(C)C2C[C@@H](OC(C)=O)[C@]3(C)C(CC[C@@]4(C)[C@H](c5ccoc5)OC(=O)C5OC543)[C@]21C (stereo partly drawn)	0.985

###

- assayOverview: chemical genetic growth profiling, strain panel (AID 1159580)
- testSettings: S. cerevisiae deletion strains, growth OD, locus YNL071W, strain lat1, hits give low values
The campaign covered roughly 5,500 compounds. About 2,000 (36%) were called active. About 18% were inconclusive and are not listed. This is one part of the list.
Item-by-item account of normalized growth
endpointName: normalized growth

> print(dat)
                                    compound  reportedresult
 1           COc1ccc(-c2cc(=O)c3ccccc3o2)cc1            0.48
 2  CC(=O)Oc1c(-c2ccccc2)oc2c(CC=C(C)C)c3c(c(OC(C)=O)c2c1=O)C=CC(C)(C)O3            1.02
 3  C=C1C(N)CC2CC1C2(C)C (centres undefined)           0.999
 4  COc1cc([C@@H]2c3cc4c(cc3[C@H](OC(C)=O)[C@H]3COC(=O)[C@H]23)OCO4)cc(OC)c1OC            1.01
 5  C/C(=C\C(=O)OCCCCCCCCC(=O)O)C[C@@H]1OC[C@H](C[C@@H]2O[C@H]2[C@@H](C)[C@H](C)O)[C@@H](O)[C@H]1O           0.989
 6  O=C(O)c1cn(-c2ccc(F)cc2)c2cc(N3CCNCC3)c(F)cc2c1=O           0.991
 7  COc1cc2c3cc1Oc1cc(ccc1O)C[C@@H]1c4c(cc(OC)c(O)c4Oc4ccc(cc4)C[C@@H]3N(C)CC2)CC[N+]1(C)C           0.969
 8  CCCN1C[C@H](CSC)C[C@@H]2c3cccc4[nH]cc(c34)C[C@H]21            1.02
 9                       N[C@H](CO)Cc1ccccc1            1.02
10                           N[C@@H]1CONC1=O           0.996
11    O=C1CCc2cc(OCCCCc3nnnn3C3CCCCC3)ccc2N1               1
12          CN(C)CC/C=C1/c2ccccc2COc2ccccc21            1.02
13  COc1ccc(-c2cc(=O)c3c(O)c(OC)c(OC)c(OC)c3o2)cc1               1
14            CN(C)CCC=C1c2ccccc2CCc2ccccc21           0.998

###

- assayOverview: chemical genetic growth profiling, strain panel (AID 1159580);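 note: tested at 20 µM; growth read once vehicle control cultures reached saturation at 30 °C; 1 = growth at the plate median or of vehicle wells; lower values mean less growth of the strain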
- testSettings: S. cerevisiae deletion strains, growth OD, locus YDR101C, strain arx1
The campaign covered roughly 5,500 compounds. About 2,000 (36%) were called active. Roughly 18% stayed inconclusive and do not appear here. Rule as the data show it: active = normalized growth mostly below about 0.91 (no sharp cut-off); inconclusive = no clear call, values can overlap the other calls; inactive = mostly above about 0.92. The list shows a part of the results.
Outcomes: active, inactive

> print(dat)
                                    compound  labelclass
 1       COc1ccc(-c2cc(=O)c3c(OC)cccc3o2)cc1    inactive
 2                        CC(=O)Nc1cccc(O)c1    inactive
 3   O=c1oc2ccccc2c(O)c1Cc1c(O)c2ccccc2oc1=O    inactive
 4           COc1ccc(-c2cc(=O)c3ccccc3o2)cc1      active
 5          CC(=O)Nc1ccc(OC(=O)c2ccccc2O)cc1    inactive
 6         COc1ccc(-c2cc(=O)c3ccccc3o2)cc1OC    inactive
 7  OC1C(O)C(O)C(O)C(O)C1O (configuration not stated)    inactive
 8                        CC(=O)Nc1ccc(O)cc1    inactive
 9                           NCC(=O)CCC(=O)O    inactive
10                O=C(O)/C=C(\CC(=O)O)C(=O)O    inactive
11       CC(C)Oc1ccc2c(=O)cc(-c3ccccc3)oc2c1      active
12  CC(=O)CC(c1ccccc1)c1c(O)c2ccccc2oc1=O (configuration not stated)    inactive

###

Entries annotated with measured normalized growth
- assayOverview: chemical genetic growth profiling, strain panel (AID 1159580);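 note: tested at 20 µM; growth read once vehicle control cultures reached saturation at 30 °C; 1 = growth at the plate median or of vehicle wells; lower values mean less growth of the strain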
- testSettings: S. cerevisiae deletion strains, growth OD, locus YMR307W, strain GAS1, hits give low values
About 2,000 (36%) of roughly 5,500 compounds were called active. Roughly 18% stayed inconclusive and do not appear here. The list shows a part of the results.
endpointName: normalized growth

> print(dat)
                                   compound       endpointname  reportedresult
1       CC(C)Oc1ccc2c(=O)cc(-c3ccccc3)oc2c1  normalized growth           0.791
2  C=CCn1c(Sc2ncc([N+](=O)[O-])s2)n[nH]c1=O  normalized growth           0.973
3  CCC1C2CC3C4N(C)c5ccccc5C45CC(C2C5OC(C)=O)N3C1OC(C)=O (stereo not given)  normalized growth           0.992
4  CC(=O)Oc1c(-c2ccccc2)oc2c(CC=C(C)C)c3c(c(OC(C)=O)c2c1=O)C=CC(C)(C)O3  normalized growth           0.818
5  FC(F)(F)c1ccc(-c2nc(-c3ccc4c(c3)OCCCO4)cs2)cc1  normalized growth           0.987

###

- assayOverview: chemical genetic growth profiling, strain panel (AID 1159580);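 note: tested at 20 µM; growth read once vehicle control cultures reached saturation at 30 °C; 1 = growth at the plate median or of vehicle wells; lower values mean less growth of the strain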
- testSettings: S. cerevisiae deletion strains, growth OD, locus YGR092W, strain DBF2, hits give low values
The campaign covered roughly 5,500 compounds. About 2,000 (36%) were called active. About 18% were inconclusive and are not listed. Some of the results follow.
endpointName: normalized growth

> print(dat)
                                    compound       endpointname  reportedresult
 1            Clc1ccc(-c2csc(Nc3ccccc3)n2)s1  normalized growth            0.33
 2  O=C(NNC(=O)c1csc(-c2cccs2)n1)c1ccc(C(F)(F)F)cc1  normalized growth           0.154
 3  CC(O)(CNCc1ccc(Cl)cc1)CSc1ccccc1Cl (centres undefined)  normalized growth           0.796
 4  Cc1ccc2c(c1)CCCN2CC(=O)N(c1ccccc1)C1CCCCC1  normalized growth           0.948
 5  N=c1ccc2nc3c(Cl)c4c(c(Cl)c3oc-2c1S(=O)(=O)O)Nc1ccc(N)c(S(=O)(=O)O)c1O4  normalized growth            1.03
 6  O=C1c2ccccc2O[C@@H](c2ccccc2)[C@@H]1NCc1ccccc1  normalized growth           0.844
 7  CC(C)CSc1nnc(CSCc2nc(-c3ccc(Cl)cc3)cs2)n1C  normalized growth           0.981
 8  Cc1ccc(C(=O)O/N=C(/N)CSc2ncccc2C(F)(F)F)cc1  normalized growth               1
 9         Clc1ccccc1N/N=C\Cc1nnnn1-c1ccccc1  normalized growth           0.282
10  CCn1nc(C)cc1-c1nnc(Sc2ncc([N+](=O)[O-])s2)n1C  normalized growth            0.92
11   Cc1ccc(C(O)(c2ccccc2)c2ccccc2)c2ccccc12  normalized growth           0.907
12  C/C(=N/Nc1nc(C(C)(C)C)cs1)c1ccc(Cl)c(Cl)c1  normalized growth           0.923
13   Cc1nc(-c2ccc(C(F)(F)F)cn2)[nH]c(=O)c1Cl  normalized growth           0.689
14  CCC(C)COC(=O)/C=C/c1ccc(N=Cc2ccc(OC)cc2)cc1 (centres undefined)  normalized growth           0.646
